- Tested on: NF-kB
- MEASUREMENT PROTOCOL: NF-kB promoter-driven firefly luciferase reporter assay in SH-5YSY clone C1
- Format: cell-based, human
- TEST CONDITIONS: Homo sapiens; SH-5YSY clone C1, NF-kB luciferase reporter
MEASUREMENT NAME: log10(IC50) (log10 of the value in nM)
Scale type: logarithmic (base 10). Underlying IC50 unit: nM.

Record excerpt, results attached:
{"MOLECULE": "C=C(C)CN(CC)C(=O)Nc1ccc(-c2ccccc2)cc1", "log10(IC50)": 1.81}
{"MOLECULE": "O=C(/C=C/Nc1cc(Cl)ccc1O)c1ccccc1", "log10(IC50)": 2.33}
{"MOLECULE": "COc1ccc(-c2noc(-c3cccc(OC)c3)n2)cc1", "log10(IC50)": 1.91}
{"MOLECULE": "COc1cccc(-c2nnc(-c3ccccc3NS(=O)(=O)c3ccc(NC(C)=O)cc3)o2)c1", "log10(IC50)": 2.11}
{"MOLECULE": "Cc1ccc2nc(-c3ccc(NS(=O)(=O)c4ccc(F)c(Cl)c4)cc3)sc2c1", "log10(IC50)": 2.05}
{"MOLECULE": "C=CCNc1nc(-c2cc3ccccc3o2)cs1", "log10(IC50)": 2.78}
{"MOLECULE": "COc1ccc(NC(=O)N2CCc3ccccc32)cc1", "log10(IC50)": 2.84}
{"MOLECULE": "COc1cc(C)c(S(=O)(=O)Nc2ccc(-c3nc4ccc(C)cc4s3)cc2)c(C)c1C", "log10(IC50)": 2.19}
{"MOLECULE": "Fc1ccc(-c2nc3n(n2)Cc2ccccc2-3)cc1", "log10(IC50)": 2.10}
{"MOLECULE": "Nc1nc(-c2ccc(-c3ccccc3)cc2)cs1", "log10(IC50)": 2.09}

Noted for c1ccc(CSCc2cn3ccsc3n2)cc1 : its log10(IC50) reads 4.10

The reported value for Brc1cccc(-c2cn3ccsc3n2)c1 in terms of log10(IC50) is 2.40

Entry under test: Cc1ccc2nc(-c3ccc(NS(=O)(=O)c4ccccc4OC(F)(F)F)cc3)sc2c1 . Its log10(IC50) was 2.19

Record summary for Oc1ccccc1-c1cc(-c2ccc3c(c2)OCCO3)[nH]n1 : reported log10(IC50) = 2.81

Memo: O=C(Nc1ccc2c(c1)OCCO2)Nc1ccc2c(c1)OCO2 , reported log10(IC50): 2.06

* * *

- Tested on: NF-kB
- MEASUREMENT PROTOCOL: NF-kB promoter-driven firefly luciferase reporter assay in SH-5YSY clone C1
- Assay type: cell-based, human
- TEST CONDITIONS: Homo sapiens; SH-5YSY clone C1, NF-kB luciferase reporter
MEASUREMENT NAME: pIC50
Remember, pIC50 is on a log scale: it is -log10 of the molar concentration.

{"MOLECULE": "Cc1nnc(SCC(=O)Nc2ccc(-c3nc4ccccc4s3)cc2)s1 [AB00317535]", "MEASUREMENT NAME": "pIC50", "VALUE MEASURED": 6.48}
{"MOLECULE": "O=C(Nc1ccc(F)cc1)N1CCc2ccccc21 [AB00105762]", "MEASUREMENT NAME": "pIC50", "VALUE MEASURED": 6.74}
{"MOLECULE": "CN(Cc1cnc2nc(N)nc(N)c2c1)c1ccc(C(=O)N[C@@H](CCC(=O)O)C(=O)O)cc1 [AB00171904]", "MEASUREMENT NAME": "pIC50", "VALUE MEASURED": 6.80}
{"MOLECULE": "COc1cc(NCc2cnc3nc(N)nc(N)c3c2C)cc(C(F)(F)F)c1 [AB00443206]", "MEASUREMENT NAME": "pIC50", "VALUE MEASURED": 6.91}

Sample Cc1ccccc1-c1cc(-c2ccccc2O)n[nH]1 [AB00101695] ; pIC50 observed: 6.24

Lab note: measured pIC50 of COCCNc1nc(-c2cc3ccccc3o2)cs1 [AB00546194] was 5.86

Summary for this molecule, Oc1ccc2ccccc2c1C1NN=C(c2ccccc2)S1 (stereo not shown) [AB00093094] : pIC50 is 6.10

Provenance of the data: patent US10953017B2
